# TEST_TARGET: IDH1-R132C recombinant protein (Homo sapiens, UniProt O75874, R132C)
# Sequence (O75874 whole entry R132C): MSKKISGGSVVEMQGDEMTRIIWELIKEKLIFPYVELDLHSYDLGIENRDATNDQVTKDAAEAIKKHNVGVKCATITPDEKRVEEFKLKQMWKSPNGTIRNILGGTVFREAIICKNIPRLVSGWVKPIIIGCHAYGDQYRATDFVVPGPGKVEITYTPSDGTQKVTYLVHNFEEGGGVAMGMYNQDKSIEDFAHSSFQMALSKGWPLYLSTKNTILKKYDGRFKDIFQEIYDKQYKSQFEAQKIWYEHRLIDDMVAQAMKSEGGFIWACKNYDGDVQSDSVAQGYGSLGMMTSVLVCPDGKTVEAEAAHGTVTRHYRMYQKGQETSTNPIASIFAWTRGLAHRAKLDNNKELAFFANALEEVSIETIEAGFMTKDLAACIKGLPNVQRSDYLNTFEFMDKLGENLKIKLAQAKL
# EXPERIMENTAL_DETAILS: IDH1-R132C enzymatic assay (NADPH consumption, diaphorase/resazurin readout)
# RUN_PARAMETERS: read-out: Enzyme IDH1 R132C IC50 Range
IC50 values, listed per item
TEST_READOUT: IC50

SAMPLE_SMILES: COc1cc(NCc2cc3ccccc3[nH]c2=O)ccc1C#N
TEST_TARGET: IDH1-R132C recombinant protein (Homo sapiens, UniProt O75874, R132C)
MEAS_VALUE: > 1000 nM
//
SAMPLE_SMILES: COc1cc(NCc2cc3cc(C(F)(F)F)ccc3[nH]c2=O)ccc1C#N
TEST_TARGET: IDH1-R132C recombinant protein (Homo sapiens, UniProt O75874, R132C)
MEAS_VALUE: > 1000 nM
//
SAMPLE_SMILES: COc1cc(NCc2cc3cc(Cl)c(OCCN4CCN(S(C)(=O)=O)CC4)cc3[nH]c2=O)ccc1C#N
TEST_TARGET: IDH1-R132C recombinant protein (Homo sapiens, UniProt O75874, R132C)
MEAS_VALUE: 100 to 1000 nM
//
SAMPLE_SMILES: COc1cc(NCc2cc3cc(Cl)ccc3[nH]c2=O)cc(OC)c1C#N
TEST_TARGET: IDH1-R132C recombinant protein (Homo sapiens, UniProt O75874, R132C)
MEAS_VALUE: > 1000 nM
//
SAMPLE_SMILES: COc1cc(NCc2cc3cc(Cl)c(OC[C@H]4CCOC4)cc3[nH]c2=O)ccc1C#N
TEST_TARGET: IDH1-R132C recombinant protein (Homo sapiens, UniProt O75874, R132C)
MEAS_VALUE: > 1000 nM
//
SAMPLE_SMILES: COc1cc(NCc2cc3cc(C)ccc3[nH]c2=O)ccc1-n1cnnn1
TEST_TARGET: IDH1-R132C recombinant protein (Homo sapiens, UniProt O75874, R132C)
MEAS_VALUE: > 1000 nM
//
SAMPLE_SMILES: COc1cc(NCc2cc3cc(Cl)cc(C)c3[nH]c2=O)ccc1C#N
TEST_TARGET: IDH1-R132C recombinant protein (Homo sapiens, UniProt O75874, R132C)
MEAS_VALUE: > 1000 nM
//
SAMPLE_SMILES: COc1cc(NCc2cc3cc(Cl)cc(OCc4ccccn4)c3[nH]c2=O)ccc1C#N
TEST_TARGET: IDH1-R132C recombinant protein (Homo sapiens, UniProt O75874, R132C)
MEAS_VALUE: > 1000 nM
//
SAMPLE_SMILES: N#Cc1ccc(NCc2cc3cc(Cl)ccc3[nH]c2=O)cc1O
TEST_TARGET: IDH1-R132C recombinant protein (Homo sapiens, UniProt O75874, R132C)
MEAS_VALUE: > 1000 nM
//
SAMPLE_SMILES: COc1cc(NCc2cc3cc(Cl)c(OCCc4ccccn4)cc3[nH]c2=O)ccc1C#N
TEST_TARGET: IDH1-R132C recombinant protein (Homo sapiens, UniProt O75874, R132C)
MEAS_VALUE: > 1000 nM
//
SAMPLE_SMILES: COc1cc(NCc2cc3cc(Cl)c(OCc4nccn4C)cc3[nH]c2=O)ccc1C#N
TEST_TARGET: IDH1-R132C recombinant protein (Homo sapiens, UniProt O75874, R132C)
MEAS_VALUE: 100 to 1000 nM
